test system: 786-0 renal; assay: NCI tumour cell line growth inhibition, 48 h; in the data active = GI50 below about 0.43 µM; inactive = the rest
Allowed answers: 1.0 (active), 0.0 (inactive)

# molecule, system under test, class name
measured = [
    ("Clc1ccc(CNc2ccc3nc(CCC4CCCCC4)[nH]c3c2)cc1", "786-0 renal", 0.0),
    ("O=C(NCCCN1CCC(N2CCCCC2)CC1)C1=Cc2cc(Br)ccc2OC1", "786-0 renal", 0.0),
    ("CS(=O)(=O)CCN(CC#N)Cc1ccc(-c2ccc3ncnc(Nc4ccc(OCc5cccc(F)c5)c(Cl)c4)c3c2)o1", "786-0 renal", 0.0),
    ("O=c1oc2ccc(Br)cc2c(=O)n1-c1ccc(Br)cc1F", "786-0 renal", 0.0),
    ("CN1CCN(c2ccc3[nH]c(C4=C(O)c5nc(CCl)n(C)c5C(=O)C4=O)nc3n2)CC1", "786-0 renal", 0.0),
    ("CC(C)(O)/C=C/C(=O)[C@](C)(O)[C@H]1[C@H](O)C[C@@]2(C)[C@@H]3CC=C4[C@@H](C=C(O)C(=O)C4(C)C)[C@]3(C)C(=O)C[C@]12C", "786-0 renal", 1.0),
    ("CCn1c(-c2nonc2N)nc2c(C#CC(C)(C)O)nc(CN3CCCC3)cc21", "786-0 renal", 0.0),
    ("COc1cccc(/C(COc2ccc3c(c2)oc(=O)c2ccccc23)=N\\O)c1", "786-0 renal", 0.0),
    ("Cc1ncc(C(=O)Nc2ccc(CN3CCN(C)CC3)c(C(F)(F)F)c2)cc1C#Cc1c(N)ncc2ccc(F)cc12", "786-0 renal", 0.0),
    ("COc1ccccc1-c1cc(=O)c2c(C)ccnc2[nH]1", "786-0 renal", 0.0),
]

Task: Dear colleague, could you share the recorded outcome for `Cc1c2c(nn1-c1ccc(S/N=C3\SCC(=O)CN3Cc3ccccc3)cc1)-c1ccccc1CC2` when you have a moment?
Output: 0.0

Task: Just curious, what result did `COc1ccc(NC(=O)Nc2ccccc2CNc2nc(Nc3ccc(OCCN4CCCC4)cc3)ncc2Cl)cc1` get here?
Output: 0.0

Task: # lookup: test call for O=C1C=CC=C[C@@H]2C(C3OCCO3)CC[C@H]12.[C-]#[O+].[C-]#[O+].[C-]#[O+].[Fe] (stereo partly specified)
Output: 0.0

Task: // return assay outcome for `CCN(CC)c1ccc(/C=N/NC(=O)c2ccc(S(C)(=O)=O)cc2)c(O)c1`
Output: 1.0

Task: What call does the record list for `Cc1cc(Nc2nc(-c3ccc(F)cc3)nc3ccccc23)n[nH]1` ?
Output: 0.0

Task: Please state the recorded outcome for this molecule: `NC1CCCCC1N.O=C([O-])c1cc(S(=O)(=O)Nc2cc(S(=O)(=O)[O-])cc3cc(S(=O)(=O)[O-])cc(O)c23)ccc1[O-].[Pt+4]`
Output: 0.0
